Attribution: patent US9676760B2

# target: wild-type human cardiac sodium channel, hNav1.5 (Homo sapiens, UniProt Q14524)
# Sequence (Q14524 whole entry): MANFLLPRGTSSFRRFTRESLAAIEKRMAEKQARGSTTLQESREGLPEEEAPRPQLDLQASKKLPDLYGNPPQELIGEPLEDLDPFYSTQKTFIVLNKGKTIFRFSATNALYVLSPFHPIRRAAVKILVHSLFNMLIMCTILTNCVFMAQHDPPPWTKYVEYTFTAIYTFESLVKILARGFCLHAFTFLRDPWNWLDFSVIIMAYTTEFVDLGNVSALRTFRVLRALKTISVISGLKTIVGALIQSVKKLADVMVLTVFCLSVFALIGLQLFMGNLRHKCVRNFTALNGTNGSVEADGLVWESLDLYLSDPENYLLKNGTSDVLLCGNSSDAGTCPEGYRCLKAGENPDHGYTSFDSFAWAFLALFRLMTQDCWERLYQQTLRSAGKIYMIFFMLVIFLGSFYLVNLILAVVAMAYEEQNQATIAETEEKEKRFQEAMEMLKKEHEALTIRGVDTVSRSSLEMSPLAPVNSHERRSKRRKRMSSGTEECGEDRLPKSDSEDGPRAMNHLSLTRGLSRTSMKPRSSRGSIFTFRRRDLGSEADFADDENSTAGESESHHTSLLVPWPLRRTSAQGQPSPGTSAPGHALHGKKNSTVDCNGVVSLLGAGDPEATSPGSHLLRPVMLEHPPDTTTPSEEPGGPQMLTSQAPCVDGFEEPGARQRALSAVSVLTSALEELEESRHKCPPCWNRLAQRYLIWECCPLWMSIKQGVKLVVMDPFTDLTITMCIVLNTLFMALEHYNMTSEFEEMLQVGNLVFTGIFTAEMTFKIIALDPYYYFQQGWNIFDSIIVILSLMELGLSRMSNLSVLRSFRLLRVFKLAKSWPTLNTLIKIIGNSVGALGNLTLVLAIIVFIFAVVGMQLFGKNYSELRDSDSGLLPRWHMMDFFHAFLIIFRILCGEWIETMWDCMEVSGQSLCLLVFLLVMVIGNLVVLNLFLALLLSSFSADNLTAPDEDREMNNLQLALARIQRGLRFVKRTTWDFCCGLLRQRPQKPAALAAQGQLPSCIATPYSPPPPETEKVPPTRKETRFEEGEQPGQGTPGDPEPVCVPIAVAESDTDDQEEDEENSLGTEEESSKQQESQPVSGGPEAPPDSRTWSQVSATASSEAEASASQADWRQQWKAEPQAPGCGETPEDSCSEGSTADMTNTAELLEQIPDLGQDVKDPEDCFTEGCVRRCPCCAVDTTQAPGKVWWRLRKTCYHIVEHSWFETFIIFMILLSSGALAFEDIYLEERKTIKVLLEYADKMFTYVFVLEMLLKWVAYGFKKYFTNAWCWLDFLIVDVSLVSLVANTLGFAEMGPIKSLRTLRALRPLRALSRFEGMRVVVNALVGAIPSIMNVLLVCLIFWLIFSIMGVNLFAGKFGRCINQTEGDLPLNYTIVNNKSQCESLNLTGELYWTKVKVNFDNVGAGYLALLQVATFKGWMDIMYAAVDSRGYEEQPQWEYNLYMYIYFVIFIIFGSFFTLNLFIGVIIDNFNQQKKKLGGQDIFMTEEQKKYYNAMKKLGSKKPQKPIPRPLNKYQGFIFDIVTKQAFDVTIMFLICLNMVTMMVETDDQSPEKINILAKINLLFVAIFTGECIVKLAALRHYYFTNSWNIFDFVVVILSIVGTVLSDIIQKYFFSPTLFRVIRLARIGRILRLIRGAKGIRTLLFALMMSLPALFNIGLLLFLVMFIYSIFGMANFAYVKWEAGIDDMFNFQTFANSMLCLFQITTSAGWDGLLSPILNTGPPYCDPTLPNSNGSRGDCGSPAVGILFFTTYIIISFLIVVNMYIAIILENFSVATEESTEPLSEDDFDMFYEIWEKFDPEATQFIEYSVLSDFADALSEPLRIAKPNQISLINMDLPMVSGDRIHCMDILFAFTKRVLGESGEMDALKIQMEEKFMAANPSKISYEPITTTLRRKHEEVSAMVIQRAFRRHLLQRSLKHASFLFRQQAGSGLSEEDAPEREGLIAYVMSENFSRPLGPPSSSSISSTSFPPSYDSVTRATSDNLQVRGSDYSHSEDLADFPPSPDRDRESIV
# protocolDescription: Late INa screening assay (QPatch whole cell patch clamp, HEK293)
# Assay type: cell-based
# conditionSummary: HEK293, percent block of late INa; compound at 1 μM; 10 μM Tefluthrin; read-out: Late INa 1 μM
Would you mind telling me the reported inhibition at 1 µM of each entry?
Field format: number, assumed %, no unit text.

Exercise: Reported inhibition at 1 µM for wild-type human cardiac sodium channel, hNav1.5 (Homo sapiens, UniProt Q14524), given Cn1cncc1C(=O)N1CCOc2ccc(-c3ccc(C(F)(F)F)cc3)cc2C1 [III-32] ?
Solution: 22

Exercise: Reported inhibition at 1 µM for wild-type human cardiac sodium channel, hNav1.5 (Homo sapiens, UniProt Q14524), given O=C1c2cc(-c3cccc(Oc4ccccc4)c3)ccc2OCCN1Cc1ncccn1 [II-195] ?
Solution: 66

Exercise: Reported inhibition at 1 µM for wild-type human cardiac sodium channel, hNav1.5 (Homo sapiens, UniProt Q14524), given O=C1NCCOc2ccc(-c3ccc(OC(F)(F)F)cc3)cc21 [II-74] ?
Solution: 12

Exercise: Reported inhibition at 1 µM for wild-type human cardiac sodium channel, hNav1.5 (Homo sapiens, UniProt Q14524), given O=C1c2cc(-c3ccc(Oc4ccccc4)cc3)ccc2OCCN1Cc1ncccn1 [II-194] ?
Solution: 63

Exercise: Reported inhibition at 1 µM for wild-type human cardiac sodium channel, hNav1.5 (Homo sapiens, UniProt Q14524), given N[C@@H]1C[C@H]2COc3ccc(-c4ccc(C(F)(F)F)cc4)cc3C(=O)N2C1 [II-21] ?
Solution: 18

Exercise: Reported inhibition at 1 µM for wild-type human cardiac sodium channel, hNav1.5 (Homo sapiens, UniProt Q14524), given CC(C)c1nc(-c2ccc3c(c2)C(=O)N(Cc2ccccn2)CCO3)cs1 [VI-30] ?
Solution: 40

Exercise: Reported inhibition at 1 µM for wild-type human cardiac sodium channel, hNav1.5 (Homo sapiens, UniProt Q14524), given CC(C)(C)C1CC=C(c2ccc3c(c2)C(=O)N(Cc2ncccn2)CCO3)CC1 (stereo not drawn) [Compound V-1] ?
Solution: 24

Exercise: Reported inhibition at 1 µM for wild-type human cardiac sodium channel, hNav1.5 (Homo sapiens, UniProt Q14524), given O=C1c2cc(-c3ccc(OC(F)(F)F)cc3)ncc2OCCN1CC1CC1 [XII-9] ?
Solution: 22

Exercise: Reported inhibition at 1 µM for wild-type human cardiac sodium channel, hNav1.5 (Homo sapiens, UniProt Q14524), given O=C1c2cc(-c3ccc(OC(F)(F)F)cc3)ccc2OCCN1Cc1nccc(C(F)(F)F)n1 [II-113] ?
Solution: 27

----------
# target: hNav 1.1 sodium channel isoform (Homo sapiens, UniProt P35498)
# Construct: expressed in transfected cells; host or cells: HEK293, transient transfection (Qiagen Superfect)
# protocolDescription: hNav1.1 whole-cell voltage-clamp assay
# Assay type: cell-based
# conditionSummary: % Inhibition at 1 uM; use-dependent block, 10 Hz; read-out: NAV1.1* UDB-10HZ
Would you mind telling me the reported inhibition at 1 µM of each entry?
Field format: number, assumed %, no unit text.

Exercise: Need inhibition at 1 µM, item COc1cc(OC)nc(CN2CCOc3ccc(-c4ccc(OC(F)(F)F)cc4)cc3C2=O)n1
Solution: 2

Exercise: Need inhibition at 1 µM, item O=C(c1ncccn1)N1CCOc2ccc(-c3ccc(OC(F)(F)F)cc3)cc2C1
Solution: -1

Exercise: Need inhibition at 1 µM, item O=C1c2cc(-c3ccc(C(F)(F)F)cc3F)ccc2OCCN1Cc1ncccn1
Solution: -17

Exercise: Need inhibition at 1 µM, item O=C1c2cc(-c3ccc(Cl)cc3)ccc2OCCN1Cc1ncccn1
Solution: -10

Exercise: Need inhibition at 1 µM, item O=C1c2cc(C#Cc3ccc(OC(F)(F)F)cc3)ccc2OCCN1Cc1ncccn1
Solution: 5

Exercise: Need inhibition at 1 µM, item Cc1cccnc1CN1CCOc2ccc(-c3ccc(OC(F)(F)F)cc3)cc2C1=O
Solution: 35

Exercise: Need inhibition at 1 µM, item O=C1c2cc(C#Cc3ccc(C(F)(F)F)cc3)ccc2OCCN1Cc1ncccn1
Solution: 6

Exercise: Need inhibition at 1 µM, item O=C1c2cc(-c3ccc(C(F)(F)F)cc3)ccc2OC[C@H]2CN(CC(F)F)CCN12
Solution: 3

Exercise: Need inhibition at 1 µM, item CC(C)(C)c1ccc(-c2ccc3c(c2)C(=O)N(Cc2ncccn2)CCO3)cc1
Solution: -1

Exercise: Need inhibition at 1 µM, item Cc1ccnc(CN2CCOc3ccc(-c4ccc(OC(F)(F)F)cc4)cc3C2=O)n1
Solution: 21

Exercise: Need inhibition at 1 µM, item O=C1c2cc(-c3ccc(OC(F)(F)F)cc3)ncc2OCCN1Cc1ccccc1
Solution: -1

Exercise: Need inhibition at 1 µM, item CC1CC=C(c2ccc3c(c2)C(=O)N(Cc2ncccn2)CCO3)CC1 (stereo not drawn)
Solution: -18

Exercise: Need inhibition at 1 µM, item O=C1c2cc(-c3ccc(C(F)(F)F)cc3)ccc2OC[C@H]2CN(CC(F)(F)F)CCN12
Solution: -2

Exercise: Need inhibition at 1 µM, item CCc1ccc(-c2ccc3c(c2)C(=O)N(Cc2ncccn2)CCO3)cc1
Solution: -9

Exercise: Need inhibition at 1 µM, item O=C1CN(Cc2ccccc2)C(=O)c2cc(-c3ccc(C(F)(F)F)cc3)ccc2N1
Solution: -12
